Parameter melting point: see the listing below.

{"Compound": "C=CCN(CC=C)c1nc(NC(=O)Cc2cccs2)n2oc(=O)nc2n1", "melting point": "140 to 142 °C"}

Query :: Which melting point is reported for this compound? CCOC1=NC(N)=C(C(=O)OC)C(c2cccc([N+](=O)[O-])c2)C1C(=O)OC (stereo not given)
Result :: 163 °C

Query :: So what does the record say about melting point for Cc1cc2c(cc1C(=O)c1ccccc1Cl)OC(C(=O)O)O2 (stereo not given) ?
Result :: 133 to 135 °C

Query :: Param item = COC(=O)c1nc(-c2ccc(Cl)c(OC)c2F)cc(N)c1OC ; retrieve measured melting point.
Result :: 114 to 118 °C

Query :: Fill in the blank: the reported melting point of Cc1cccc2c1NC(=O)c1cscc1O2 is ____.
Result :: 194 to 195 °C

From: a melting point compilation (Tetko et al.; mined from patent text by program, amines drawn as free bases though some values may be those of a salt)
